# protocolDetails: S. cerevisiae RM11-1a growth modifiers, primary screen, strain RM11-1a, OD600, basal, 24 h (AID 1177);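 also: cultures grown under basal conditions with no added stressor; test concentration not given here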
# conditions: OD600, 24 h, higher = more signal, called active from +8 up or from −8 down
attributeMeasured: z-score

molecule	attributeMeasured	reported
O=C1O[C@H](c2ccccc2)[C@H](c2ccccc2)N2[C@H]1[C@@H](C(=O)NC[C@H](O)c1ccccc1)[C@]1(C(=O)Nc3ccc(C#CCCO)cc31)[C@H]2c1ccc(O)cc1	z-score	0.117
[N-]=[N+]=NCc1ccccc1C[C@]1(C(=O)O)N=C(c2ccc(OCCCO)cc2)O[C@H]1c1ccccc1CN=[N+]=[N-]	z-score	-1.05
O=C1c2ccccc2[C@@]2(Cc3ccccc3N(Cc3ccccc3)C2=O)[C@H](c2ccc(CO)cc2)N1C1CCCCC1	z-score	1.57
CCCCC=C[C@@H](NC(=O)c1cccs1)c1ccccc1	z-score	1
Cc1ccc(S[C@]2(C(=O)NCC(C)C)CC(=O)N(Cc3ccccc3Cl)[C@@H]2c2ccc(CO)cc2)cc1	z-score	0.343
C=CCC(OC(C)=O)[C@@H]1[C@@H](N(Cc2ccc(-c3cccc(C(F)(F)F)c3)o2)C(=O)c2ccc(C)cc2)c2cc(OCCCO)ccc2N1C(=O)c1ccc(-c2ccccc2)cc1 (some centres not stated)	z-score	0.677
CN1CCC(CCCO)=CC1c1ccc(CN2CCCC2)cc1 (configuration not stated)	z-score	-0.0607

This collection of values is drawn from PubChem BioAssay.
